Data provenance is ChEMBL document CHEMBL1649253.

Test system: Mycobacterium tuberculosis
test: Antibacterial activity against ethambutol-resistant Mycobacterium tuberculosis H37Ra
Type: functional
# MIC values compiled below

input: Fill in the blank: the reported MIC of `CC[C@@H](CO)NCCN[C@@H](CC)CO` is ____.
output: > 400 µg/mL

input: Same read-out for `NNC(=O)c1ccncc1` ?
output: 0.2 µg/mL

input: Also, NC(=O)c1cnccn1 [PYRAZINAMIDE] please.
output: 50 µg/mL

input: Entry to check: `CO[C@H]1/C=C/O[C@@]2(C)Oc3c(C)c(O)c4c(O)c(c(/C=N/N5CCN(C)CC5)c(O)c4c3C2=O)NC(=O)/C(C)=C\C=C\[C@H](C)[C@H](O)[C@@H](C)[C@@H](O)[C@@H](C)[C@H](OC(C)=O)[C@@H]1C`
output: 0.2 µg/mL
